- Method Description: T. gondii growth inhibition with IFN-gamma, primary screen, cell-based (AID 1259416);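 note: host cells are HeLa cells infected with Toxoplasma gondii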
- Settings: Toxoplasma gondii growth in IFN-gamma-treated host cells; active compounds read low; concentration not given here
The whole screen tested about 69,000 compounds, of which about 2,600 (3.8%) were called active. This excerpt belongs to a sample that is enriched for actives.
Measured Endpoint: activity change, negative = inhibition (%)
Give bare numbers, in %.

Some compounds with known activity change, negative = inhibition results, for comparison:
>  <Compound>
Cn1nc(C2CCN(c3cnccn3)CC2)n(-c2ccccc2)c1=O

>  <Units Of Measure>
%

>  <activity change, negative = inhibition>
2.02

$$$$
>  <Compound>
O=C(Sc1cccs1)c1csc(C2COc3ccccc3O2)n1 (configuration not stated)

>  <Units Of Measure>
%

>  <activity change, negative = inhibition>
-96.7

$$$$
>  <Compound>
CC(=O)NCCc1csc(C2CCN(C(=O)NCc3ccc(F)cc3)CC2)n1

>  <Units Of Measure>
%

>  <activity change, negative = inhibition>
-3.56

$$$$
>  <Compound>
CCOc1ccc(-c2nc3c(s2)CN(S(=O)(=O)c2cccc(C)c2)CC3)cc1

>  <Units Of Measure>
%

>  <activity change, negative = inhibition>
4.52

$$$$
>  <Compound>
O=C(c1cc(COc2c(F)cccc2F)on1)N1CCCC1c1ccco1 (configuration not stated)

>  <Units Of Measure>
%

>  <activity change, negative = inhibition>
1.77

$$$$
>  <Compound>
CCc1nnc(CN(CC)C(=O)c2cccc(-c3ccc(C)o3)c2)o1

>  <Units Of Measure>
%

>  <activity change, negative = inhibition>
0.889

$$$$

Parameter requested: activity change, negative = inhibition. Apply to each item below.
1. COc1cc(-c2nc(CN3[C@@H]4CC[C@H]3CNC(=O)C4)c(C)o2)cc2c1OCO2
2. COc1cccc(NC2COC3(CCN(S(=O)(=O)c4cccc(F)c4)CC3)C2)c1 (configuration not stated)
3. CCN(CC)c1ncnc2c1cnn2CC(=O)NCc1ccccc1
4. CO[C@H](c1ccccc1)c1n[nH]c(Cc2ccccc2)n1
5. COc1ccc(-c2nc3c(s2)CN(S(=O)(=O)c2ccc(C)cc2C)CC3)cc1OC
6. COCCn1c(C(=O)NCCCN(C)C)cc2c1c1ccccc1n2C
7. COc1ccc(S(=O)(=O)N2CCc3nc(-c4ccccc4)sc3C2)cc1OC

1. -3.36
2. -1.19
3. -95.8
4. 0.899
5. -101
6. -12.8
7. 62

Could you report activity change, negative = inhibition for every entry in the following list?
1. COC(C)c1nncn1-c1cccc2ccccc12 (configuration not stated)
2. CCOCC1CN(Cc2ccc3c(c2)OCO3)Cc2cncn2C1 (configuration not stated)
3. CCCc1ccc(N2C(=O)C3CCC(C)CC3C2=O)cc1 (configuration not stated)
4. O=C(CC1CC1)N1CC[C@@H]2[C@H](CO)Nc3ccc(-c4ccc(F)cc4)cc3[C@@H]21
5. Cc1cccc(-c2[nH]n3c(=O)cc(C(C)n4cnc5ccccc5c4=O)nc3c2C)c1 (configuration not stated)
6. COCC12CCCOC1CCN(S(=O)(=O)C1CC1)C2 (configuration not stated)
7. Cc1ccc(C23CC4CC(CC(CN)(C4)C2)C3)cc1C

-48.2
-0.275
7.51
-30.6
-29.3
5.49
-89.5

Hello, I would appreciate it if you could give activity change, negative = inhibition for each entry below.
1. COc1ccc(-c2nc(C)c(CCNS(=O)(=O)c3ccccc3)s2)cc1OC
2. CCOC1C2CCC1N(S(=O)(=O)c1cccc(C)c1)CCO2 (configuration not stated)

[132, 16.8]
